assay: Selectivity index, ratio of CC50 for human Huh7.5.1 cells infected with human HCV genotype 2a JFH1 to EC50 for HCV genotype 2a JFH1 infected in human Huh7.5.1 cells; parameters: species or system Huh-7
measurement-label: Ratio CC50/EC50

Briefly, Ratio CC50/EC50 measured for O=C(Nc1ccc(-n2ccc(=O)c3c(=O)n(Cc4ccc(Cl)cc4)ccc32)cc1)c1cc(F)ccc1F : 1.4

Value of Ratio CC50/EC50 reported for the compound O=c1ccn(-c2ccc([N+](=O)[O-])c(C(F)(F)F)c2)c2ccn(Cc3ccc(Cl)cc3)c(=O)c12 is 2.2

Documented Ratio CC50/EC50 of O=C(Nc1ccc(-n2ccc(=O)c3c(=O)n(Cc4ccc(Cl)cc4)ccc32)c(C(F)(F)F)c1)c1cc(F)ccc1F : 1.1

For record COc1cc2c(cc1F)c(=O)c(C(=O)OCc1ccc(Cl)cc1)c(C)n2Cc1ccc(Cl)cc1 the listed Ratio CC50/EC50 is >16.7

For Nc1ccc(-n2ccc(=O)c3c(=O)n(Cc4ccc(Cl)cc4)ccc32)cc1Cl the compound record lists Ratio CC50/EC50 as 3

---

For each record, write down the corresponding CC50 at 72 h.
assay: Cytotoxicity against human Huh7.5.1 cells infected with human HCV genotype 2a JFH1 incubated for 72 hrs by MTT assay; format: cell-based, Huh-7; details: Huh7.5.1 cells infected with HCV genotype 2a JFH1

Form: molecule = Nc1ccc(-n2ccc(=O)c3c(=O)n(Cc4ccc(Cl)cc4)ccc32)cc1Cl ; CC50 at 72 h = 19.4 µM

Per the records, this molecule ( CCc1c(C(=O)OCc2ccc(Cl)cc2)c(=O)c2cc(F)c(OC)cc2n1Cc1ccc(Cl)cc1 ) has CC50 at 72 h equal to 26.8 µM

Data point: CN1CCN(c2cc3c(cc2F)c(=O)c(C(=O)OCc2ccc(Cl)cc2)cn3Cc2ccc(Cl)cc2)CC1 ; CC50 at 72 h = > 40 µM

Summary for this molecule, O=C(Nc1ccc(-n2ccc(=O)c3c(=O)n(Cc4ccc(Cl)cc4)ccc32)c(C(F)(F)F)c1)c1cc(F)ccc1F : CC50 at 72 h is 1.5 µM

Memo: O=C(Nc1ccc(-n2ccc(=O)c3c(=O)n(Cc4ccc(Cl)cc4)ccc32)cc1)c1cc(F)ccc1F , reported CC50 at 72 h: 6.4 µM

Notebook: CN1CCN(c2c(F)cc3c(=O)c(C(=O)OCc4ccc(Cl)cc4)c(-c4ccc(F)cc4)n(C4CC4)c3c2F)CC1 , CC50 at 72 h read as 13.2 µM

// CC50 at 72 h value for Nc1ccc(-n2ccc(=O)c3c(=O)n(Cc4ccc(Cl)cc4)ccc32)cc1C(F)(F)F : 17.9 µM

The value of CC50 at 72 h measured for the molecule COCc1c(C(=O)OCc2ccc(Cl)cc2)c(=O)c2cc(F)c(N3CCN(C)CC3)cc2n1Cc1ccc(Cl)cc1 turned out to be 4.3 µM

Consider O=c1ccn(-c2ccc([N+](=O)[O-])c(C(F)(F)F)c2)c2ccn(Cc3ccc(Cl)cc3)c(=O)c12 . Its measured CC50 at 72 h is 10.6 µM

get_value(item= COCc1c(C(=O)OCc2ccc(Cl)cc2)c(=O)c2cc(F)c(OC)cc2n1Cc1ccc(Cl)cc1 , readout=CC50 at 72 h) returns > 40 µM

Note to self: CC50 at 72 h recorded for COCc1c(C(=O)OCc2ccc(Cl)cc2)c(=O)c2cc(F)c(N3CCN(Cc4ccccc4)CC3)cc2n1Cc1ccc(Cl)cc1 was > 40 µM

Per the record, COc1cc2c(cc1F)c(=O)c(C(=O)OCc1ccc(Cl)cc1)c(C)n2Cc1ccc(Cl)cc1 has CC50 at 72 h of > 40 µM

// field: CC50 at 72 h; key: Cc1c(C(=O)OCc2ccc(Cl)cc2)c(=O)c2cc(F)c(N3CCN(C)CC3)cc2n1Cc1ccc(Cl)cc1 ; value = 33.1 µM

---

experiment: Cytotoxicity against human Huh7.5.1 cells infected with human HCV genotype 2a JFH1 assessed as cell viability at 5 uM incubated for 72 hrs by MTT assay; format: cell-based, Huh-7; details: Huh7.5.1 cells infected with HCV genotype 2a JFH1, read-out: Activity
Please respond with reported viability at 72 h, 5 µM for every item in the list.
Numeric answer only, unit % assumed.

Lab book: viability at 72 h, 5 µM of Cc1ccc(Cn2ccc3c(c(=O)ccn3-c3ccc(N)c(C(F)(F)F)c3)c2=O)c(C)c1 noted as 99.8

Kindly note the recorded viability at 72 h, 5 µM for Cc1cc(N)ccc1-n1ccc(=O)c2c(=O)n(Cc3ccc(Cl)cc3)ccc21 , which is 91.6

Record Nc1ccc(-n2ccc(=O)c3c(=O)n(Cc4ccc(Cl)cc4)ccc32)cc1Cl , field viability at 72 h, 5 µM: 79.2

viability at 72 h, 5 µM measured on O=c1ccn(-c2ccc([N+](=O)[O-])c(C(F)(F)F)c2)c2ccn(Cc3ccc(Cl)cc3)c(=O)c12 = 75.6

For O=C(Nc1ccc(F)cc1)Nc1ccc(-n2ccc(=O)c3c(=O)n(Cc4ccc(Cl)cc4)ccc32)cc1 the molecule record lists viability at 72 h, 5 µM as 98.4

Recorded viability at 72 h, 5 µM (molecule N#Cc1ccc(-n2ccc(=O)c3c(=O)n(Cc4ccc(Cl)cc4)ccc32)cc1C(F)(F)F ): 86.4

The recorded viability at 72 h, 5 µM for Nc1ccc(-n2ccc(=O)c3c(=O)n(CC4CC=CC4)ccc32)cc1C(F)(F)F is 100

viability at 72 h, 5 µM reading for Cc1ccc(C(=O)Nc2ccc(-n3ccc(=O)c4c(=O)n(Cc5ccc(Cl)cc5)ccc43)cc2)o1 : 88

molecule O=C(Nc1ccc(-n2ccc(=O)c3c(=O)n(Cc4ccc(Cl)cc4)ccc32)cc1)c1ccccn1 , viability at 72 h, 5 µM observed: 88.7

Please fill in: viability at 72 h, 5 µM reported for O=C(Nc1ccc(F)cc1)Nc1ccc(-n2ccc(=O)c3c(=O)n(Cc4ccc(Cl)cc4)ccc32)c(C(F)(F)F)c1 = 75.4

---

assay: Selectivity index, ratio of CC50 for human Huh7.5.1 cells infected with human HCV genotype 2a JFH1 to EC50 for HCV genotype 2a JFH1 infected in human Huh7.5.1 cells; design: species or system Huh-7
Could you please report measured Ratio CC50/EC50 for the items listed next?

In plain terms, COCc1c(C(=O)OCc2ccc(Cl)cc2)c(=O)c2cc(F)c(N3CCN(Cc4ccccc4)CC3)cc2n1Cc1ccc(Cl)cc1 has a documented Ratio CC50/EC50 of >8.2

get_value(item= COCc1c(C(=O)OCc2ccc(Cl)cc2)c(=O)c2cc(F)c(OC)cc2n1Cc1ccc(Cl)cc1 , readout=Ratio CC50/EC50) returns >3.6

CN1CCN(c2cc3c(cc2F)c(=O)c(C(=O)OCc2ccc(Cl)cc2)cn3Cc2ccc(Cl)cc2)CC1 has a reported Ratio CC50/EC50 of >9.3

---

test system: Hepatitis C virus; assay: Antiviral activity against HCV genotype 2a JFH1 infected in human Huh7.5.1 cells incubated for 72 hrs by GFP based J399EAM HCV reporter assay; assay type: functional, organism-based, Hepacivirus hominis; details: subtype 2a JFH1, Huh-7, 72 h
measurement-label: EC50 (µM)
Respond with the bare value in µM.

Lookup result for Cc1c(C(=O)OCc2ccc(Cl)cc2)c(=O)c2cc(F)c(N3CCN(C)CC3)cc2n1Cc1ccc(Cl)cc1 ; measured EC50: 7.2

The compound identified as CCc1c(C(=O)OCc2ccc(Cl)cc2)c(=O)c2cc(F)c(OC)cc2n1Cc1ccc(Cl)cc1 registered its EC50 at 3.7

EC50 reading for CN1CCN(c2c(F)cc3c(=O)c(C(=O)OCc4ccc(Cl)cc4)c(-c4ccc(F)cc4)n(C4CC4)c3c2F)CC1 : 2.02

For record O=c1ccn(-c2ccc([N+](=O)[O-])c(C(F)(F)F)c2)c2ccn(Cc3ccc(Cl)cc3)c(=O)c12 the listed EC50 is 4.8

Sample COc1cc2c(cc1F)c(=O)c(C(=O)OCc1ccc(Cl)cc1)c(C)n2Cc1ccc(Cl)cc1 ; EC50 observed: 2.4

COCc1c(C(=O)OCc2ccc(Cl)cc2)c(=O)c2cc(F)c(N3CCN(Cc4ccccc4)CC3)cc2n1Cc1ccc(Cl)cc1 yielded EC50 of 4.9
